Tested on: L1210 leukemia ip in BDF1 mice, survival T/C
Test: NCI In Vivo Anticancer Drug Screen. Data for tumor model L1210 Leukemia (intraperitoneal) in B6D2F1 (BDF1) mice
Conditions: endpoint: mean survival time; dose: 100.0 mg/kg/injection; schedule: Q04DX003 (ip); vehicle: saline
Toxic doses and inconclusive results are not listed. Cut-off read from the data, not from the text of the source: active = T/C of 150% or more; inactive = T/C below 125%.
Entry note: the call must match one of y for active, n for inactive

{"columns": ["Compound", "Label Class"],
 "data": [
  ["CC(CC1c2ccccc2CCc2ccccc21)CN(C)C (stereo unspecified)", "n"],
  ["COC(=O)C1C(O)CN2CCCC12 (stereo unspecified)", "n"]
]}

For O=C(Nc1cc(C(F)(F)F)ccc1Cl)c1ccccc1 , what call appears in the results of this test?
n

For CC(=O)NCSCC(N)C(=O)O (stereo unspecified) , what call appears in the results of this test?
n

For Br/C=C/C1=CCCCC1 , what call appears in the results of this test?
n

For CCCCP(=S)(N1CCCCC1)N1CCCCC1 , what call appears in the results of this test?
n

For CCNC(C)(C)C(SSSC(c1cccs1)C(C)(C)NCC)c1cccs1 (stereo unspecified) , what call appears in the results of this test?
n

For NC(=O)SCC(=O)Nc1ccc2ncccc2c1 , what call appears in the results of this test?
n

For CCCOP(=O)(CCl)OCCC , what call appears in the results of this test?
n

###

Can you tell me T/C for the items I'm about to list?
Tested on: L1210 leukemia ip in BDF1 mice, survival T/C
Assay: NCI In Vivo Anticancer Drug Screen. Data for tumor model L1210 Leukemia (intraperitoneal) in B6D2F1 (BDF1) mice
Conditions: endpoint: mean survival time; dose: 400.0 mg/kg/injection; schedule: Q01DX001 (ip); vehicle: saline; higher = longer survival
Toxic doses and inconclusive results are not listed.

Please review the entries below; each comes with its answer.
{"columns": ["Compound", "Target Of Assay", "Experimental Result"],
 "data": [
  ["O=P(Oc1ccccc1)(Oc1ccccc1)Oc1ccccc1Cl", "L1210 leukemia ip in BDF1 mice, survival T/C", "97 % of control"],
  ["CC(C)OP(=O)(NO)OC(C)C", "L1210 leukemia ip in BDF1 mice, survival T/C", "90 % of control"],
  ["Cc1cc(O)c(C(N)=O)c(=O)[nH]1", "L1210 leukemia ip in BDF1 mice, survival T/C", "101 % of control"]
]}

# return T/C for each item in the list
1. Cn1c(=O)cc(C=Nc2ccc(C(=O)O)cc2)c2ccccc21
2. Oc1ccc(/C=N/Nc2nnc(N/N=C/c3ccc(O)c(O)c3)c3ccccc23)cc1O
3. Cc1ccc(Nc2nc(N)nc(N)c2C=O)cc1C
4. Nc1nc2nc(-c3ccccc3)nc(N)c2nc1-c1ccc(N(CCO)CCO)cc1
5. CCOCCOC(=O)c1ccc(C(=N)OCC)cc1
6. CCC[CH2][Ge]([CH2]CCC)([CH2]CCC)[N]1C(=O)c2ccccc2C1=O
7. Cc1cc(N)nc(=O)n1C1OC(CO)C(O)C1O (configuration not stated)

100 % of control
97 % of control
97 % of control
95 % of control
86 % of control
108 % of control
101 % of control

# return T/C for each item in the list
1. O=C(Nc1nn[nH]n1)C(F)(F)F
2. CC1CCCC1=O (configuration not stated)
3. CC(C)OP1(=O)OCC(C)O1 (configuration not stated)

105 % of control
93 % of control
102 % of control

# return T/C for each item in the list
1. COC1CCC2(C)C(C)C(C)CC3OC32C1 (configuration not stated)
2. CC1(C)OC2OC(COC(=O)c3ccccc3)C(=O)C2O1 (configuration not stated)

104 % of control
98 % of control

# return T/C for each item in the list
1. COc1ccc(/C=C2/CN(c3ccc(C(=O)O)cc3)C(=O)C2=O)cc1
2. CCCCCCCC(=O)N(CCN(N=O)C(=O)CCCCCCC)N=O
3. CC1(C)OC(N)=C(C(N)=O)C1c1ccc(Cl)cc1 (configuration not stated)

1. 98 % of control
2. 90 % of control
3. 95 % of control

# return T/C for each item in the list
1. CCN(CC)CCOC(=O)c1ccccc1N(c1ccccc1)c1ccccc1
2. O=C1OC(C(O)CO)C(O)C1O (configuration not stated)
3. Oc1ccc(Br)c2cccnc12
4. O=C1c2cc([N+](=O)[O-])ccc2NC1(c1c[nH]c2ccccc12)c1c[nH]c2ccc(Br)cc12 (configuration not stated)
5. CC(=O)c1ccc(N=Nc2c(N)nc(N)nc2N)cc1
6. CC(C)(C)CC(C)(C)N(CSc1ccc(Br)cc1)CSc1ccc(Br)cc1

1. 98 % of control
2. 92 % of control
3. 100 % of control
4. 93 % of control
5. 94 % of control
6. 93 % of control

# return T/C for each item in the list
1. O=C1C(c2ccc(O)cc2)C2C=CC(C2)N1O (configuration not stated)
2. Nc1ncnn1C(=O)OCc1ccccc1
3. O=C(O)C(c1ccccc1)S(=O)(=O)C(C(=O)O)c1ccccc1 (configuration not stated)

1: 95 % of control; 2: 93 % of control; 3: 95 % of control

###

Tested on: L1210 leukemia ip in BDF1 mice, survival T/C
Experiment: NCI In Vivo Anticancer Drug Screen. Data for tumor model L1210 Leukemia (intraperitoneal) in B6D2F1 (BDF1) mice
Conditions: endpoint: mean survival time; dose: 50.0 mg/kg/injection; schedule: Q04DX003 (ip); vehicle: Klucel (hydroxypropylcellulose) (HPC); higher = longer survival
Toxic doses and inconclusive results are not listed.
Experimental Endpoint: T/C

{"columns": ["Molecule", "Experimental Result"],
 "data": [
  ["CC(=O)Nc1ccc[n+](Cc2ccc(S(=O)(=O)F)cc2)c1", "104 % of control"],
  ["COc1cc2c(cc1OC)C(C)=[N+](C)CC2", "106 % of control"],
  ["CC(=O)OC1=CCC(C(C)(C)C)CC1 (configuration not stated)", "106 % of control"],
  ["NC(=O)NC=O", "101 % of control"],
  ["Nc1ccc(-c2ccc(NC(=O)C(=O)O)cc2)cc1", "111 % of control"]
]}

# return T/C for each item in the list
1. C[n+]1ccc(/C=C/c2ccc(Cl)c(Cl)c2)c2ccccc21
2. CC(C)(CO)N=Cc1ccccc1O
3. C[P+](Cc1ccc([N+](=O)[O-])cc1)(c1ccccc1)c1ccccc1
4. Cc1ccc(C(=O)/C=C2/SS/C(=C/C(=O)c3ccc(C)cc3)S2)cc1
5. CC(=O)c1ccccc1C(=O)O
6. CNC(=S)N/N=C(/C)CCC/C(C)=N/NC(=S)NC

1. 96 % of control
2. 104 % of control
3. 96 % of control
4. 100 % of control
5. 98 % of control
6. 101 % of control

Consider the molecule COc1cc2c(cc1OC)/C(=N/N)CCC2 and give its measured T/C.
95 % of control

###

Can you tell me T/C for the items I'm about to list?
System: L1210 leukemia ip in BDF1 mice, survival T/C
Assay: NCI In Vivo Anticancer Drug Screen. Data for tumor model L1210 Leukemia (intraperitoneal) in B6D2F1 (BDF1) mice
Conditions: endpoint: mean survival time; dose: 100.0 mg/kg/injection; schedule: Q04DX002 (ip); vehicle: gum acacia; higher = longer survival
Inconclusive results and toxic doses are left out.

Please review the entries below; each comes with its answer.
{"columns": ["Entry Smiles", "Experimental Result"],
 "data": [
  ["CCC(C(=O)O)(c1ccccc1)c1ccccc1", "93 % of control"],
  ["CC(C(=O)O)(c1ccccc1)c1ccccc1", "101 % of control"],
  ["Cc1ncccc1CO", "104 % of control"]
]}

Consider the compound CC(=O)Nc1ccc([N+](=O)[O-])cc1 and give its measured T/C.
98 % of control

###

Can you tell me T/C for the items I'm about to list?
System: L1210 leukemia ip in BDF1 mice, survival T/C
Test: NCI In Vivo Anticancer Drug Screen. Data for tumor model L1210 Leukemia (intraperitoneal) in B6D2F1 (BDF1) mice
Settings: endpoint: mean survival time; dose: 100.0 mg/kg/injection; schedule: Q01DX009 (ip); vehicle: Klucel (hydroxypropylcellulose) (HPC); higher = longer survival
Inconclusive results and toxic doses are left out.

# return T/C for each item in the list
1. CCc1ccc(NC(=O)Nc2cccc3ccccc23)cc1
2. Cc1ccc(Cl)cc1NS(=O)(=O)c1cc(Cl)c(Cl)cc1Cl
3. O=C(O)c1c(Br)c(Br)c(Br)c(Br)c1C(=O)Nc1ccc(Cl)c(Cl)c1
4. CC(=O)OC1C(=O)C(C)(C)CSCC1(C)C (configuration not stated)

1: 87 % of control; 2: 93 % of control; 3: 95 % of control; 4: 103 % of control

# return T/C for each item in the list
1. C#CC1(NC(c2cc(Cl)cc(Cl)c2O)P(=O)(c2ccccc2)c2ccccc2)CCCCC1 (configuration not stated)
2. CC(C)(C)CC(Cl)Cl
3. Nc1ccc2[nH]c3ccccc3c2c1

94 % of control
100 % of control
95 % of control
